# Test system: ACHN
# procedure.summary: NCI tumour cell line growth inhibition, 48 h
Calls of active or inactive are those of the source. Cut-off read from the data, not from the text of the source: active = GI50 up to about 1.1 µM and inactive = higher. Where a SMILES comes first, the peptide text is derived from it. [ ]: non-standard residue; d: D form. The star is where a group is joined. ξ: configuration not given here. ξF = NC(Cc1ccccc1)C(=O)O; Cbz = O=C(OCc1ccccc1)*; Aib = CC(C)(N)C(=O)O; NHNH2 = NN*
Classes used: t (active), f (inactive)

compound	assigned.category
CC(C)OC(=O)[C@@H](O)[C@H](CO)C1=CC([Si](C)(C)c2ccccc2)=CON1	f
FC(F)(F)C1(Cl)C(c2ccccc2)=C1c1ccccc1	f
CC(=O)Oc1c(OC(C)C)c(C)c(O[Si](C(C)C)(C(C)C)C(C)C)c2[nH]c3ccccc3c12	f
COc1cc(S(=O)(=O)Nc2ccc(-c3csc(N4C(=O)C(Cl)C4c4ccccc4)n3)cc2)ccc1Cl (configuration not stated)	f
O=C(CCBr)N1CCN(C(=O)CCBr)CC1 [PIPOBROMAN]	f
CCOC(=O)CCn1[nH]c(=O)c(Cl)c(Cl)c1=O	f
CCC#CCCCCCCCCC(F)C(=O)O (configuration not stated)	f
COc1cc(C2c3cc4c(cc3[C@@H](Nc3ccccc3)C3CO[C@@H](OC)[C@H]23)OCO4)cc(OC)c1O (some centres not stated)	f
CC(C)OC(=O)/C=C/C(=O)O/C=C/[N+](=O)[O-]	f
O=C1SC(c2ccccc2)(c2ccccc2)c2ccccc21	f
CC(C)OP(=O)(OC(C)C)/C(=N/Nc1ccc([N+](=O)[O-])cc1)NNC(=O)c1ccccc1	f
CCOC(=O)NC1CN2CCC1CC2 (configuration not stated)	f
N=C(N)/N=C(\N)Nc1ccc(C(=O)O)cc1	f
c1ccc2c(c1)cc(C1NCCc3nc[nH]c31)c1ccccc12 (configuration not stated)	f
COc1ccc(C(=O)c2cc(OC)c(OC)c(OC)c2)cc1	f
O=C(c1ccccc1)C(c1ccccc1)C1(O)C(=O)Nc2ccccc21 (configuration not stated)	f
CCOC(=O)CNc1nnnn1C1OC(CO)C(O)C1O (configuration not stated)	f
Oc1cc(N2CCCC2)ccc1/C=N/N1C(=S)N(c2ccccc2)C(=N\c2ccccc2)/C1=N/c1ccccc1	f
CS(=O)(=O)CSCSSCS(C)(=O)=O	f
Cc1ccc([N+](=O)[O-])cc1S(=O)(=O)Nc1ccc(C2=NN(S(=O)(=O)c3cc([N+](=O)[O-])ccc3C)C(c3ccccc3)C2)cc1 (configuration not stated)	f
CCOc1ccc(NC(=O)C(=O)Nn2c(N)nnc2N)cc1	f
O=C(O)C(CS)NCc1c2ccccc2[n+]([O-])c2ccccc12 (configuration not stated)	f
Oc1ccc2ccccc2c1C(c1ccc(Cl)cc1)c1c(O)ccc2ccccc12	f
Cc1nc2ccc(Cl)cc2c2c1CCN2c1ccc(F)cc1	f
Cc1ccn2c(=O)cc(CN3CCOCC3)nc2c1	f
Cc1ccc(S(=O)(=O)c2ccccn2)cc1	f
CSc1ccc(/C=C2\CNC/C(=C\c3ccc(SC)cc3)C2=O)cc1	f
CC1=C2CCCC2=C/C(=N/Nc2ccc([N+](=O)[O-])cc2[N+](=O)[O-])CC1	f
N#CNC(=N)NC(=O)/C=C/C=C/c1ccc(Cl)cc1	f
CC(C)(C)N/N=C(\Cc1occc(=O)c1O)C(=O)Nc1ccc([N+](=O)[O-])cc1[N+](=O)[O-]	f
CC(C)[Si](OC1=C(C(=O)N(C)c2ccccc2Cl)CCC1)(C(C)C)C(C)C	f
O=C(C#Cc1cnc(O)nc1O)c1ccccc1Cl	f
CC1Cc2cc(O)ccc2C2[C@@H]1C1CC[C@H](O)[C@@]1(C)C[C@@H]2O[N+](=O)[O-] (some centres not stated)	f
O=C1C(SCCO)=C(SCCO)C(=O)c2ccccc21	t
CC(C)(NC(=O)OCc1ccccc1)C(=O)NC(Cc1ccccc1)C(=O)NN (configuration not stated) (Cbz-[Aib]-[ξF]-NHNH2)	f
Cc1ccc2c(c1C)C(=O)C1(Cc3cc4c(cc3C1=O)CCC4)C2 (configuration not stated)	f
COC(=O)C(C(=O)C(=O)Nc1c(Cl)cc([N+](=O)[O-])cc1Cl)c1csc(-n2nc(C3=CCCCC3)cc2-c2ccccc2)n1 (configuration not stated)	f
CC(O)C1CC1(CO)CNc1cc(Cl)nc(N)n1 (configuration not stated)	f
Sc1nnc(COc2ccc(Cl)cc2)o1	f
O=C(C#Cc1ccccc1)N1CCCCC1	f
O=c1cc(-c2ccccc2)oc2ccc(-c3ccc4oc(-c5ccccc5)cc(=O)c4c3)cc12	f
CC(=O)Oc1ccc(/C=C/C(=O)O[C@@H](C)[C@H](C)OC(=O)/C=C/c2ccc(OC(C)=O)c(OC(C)=O)c2)cc1OC(C)=O	f
